# Test system: A2780
# ASSAY_TEXT: Compound was tested for Tubulin polymerization inhibition by using human ovarian carcinoma cell lines.
# Type: functional
Item-by-item account of TPI
Note: unit % is implicit; provide only the numeric part.

The following compounds have reported results that may help.
Note to self: TPI recorded for C=CC[C@@H](CC[C@@]1(C)C[C@@H]1[C@H]1C[C@@H]1CC/C=C\[C@@H]1CSC([C@@H]2C[C@@H]2C)=N1)OC was 0

C=CC[C@@H](CC[C@@]1(C)C[C@@H]1[C@H]1C[C@@H]1CC/C=C\[C@@H]1COC([C@@H]2C[C@@H]2C)=N1)OC has a reported TPI of 59

# TPI (compound: COc1cc(COCCC/C=C/C=C(\C)CCC(O)c2cccs2)cc(OC)c1OC (stereo not given) ) is 7

Reported TPI ( COc1cc(/C=N\OC[C@H]2C[C@@H]2C2C[C@]2(C)CCC(O)c2cccs2)cc(OC)c1OC (stereo not given in full) ) = 26

Continuing:
Quick note, TPI for COc1cc(/C=N\OC/C=C/C=C(\C)CCC(O)c2cccs2)cc(OC)c1OC (stereo not given) landed at 100

Source: ChEMBL document CHEMBL1135577
